- assay_method_text: qHTS Assay for Lipid Storage Modulators in Drosophila S3 Cells
- study_conditions: BODIPY lipid droplet fluorescence, 18-24 h, cells fed with added oleic acid; series mostly up to 46.1 µM
The whole screen tested about 320,000 compounds, of which about 2,100 (0.66%) were called active. About 53% were inconclusive and are not listed. Calls come from the whole dose curve; as a rule, active = well fitted inhibition curve with a large enough effect in the signal ratio, with a control signal flat (not every such curve was filed as active); inconclusive = small, poorly fitted or top-dose-only effect, or effect the other way, or a change in a side signal; inactive = flat fitted curve, though single readings scatter; the % refers to the signal ratio. This excerpt belongs to a sample that is enriched for actives.
Possible outcomes: t = active, f = inactive

molecule	label_value
Cc1ccccc1N(Cc1cc(=O)[nH]c2ccccc12)C(=O)CCl	f
O=C(NCCO)c1ccccc1O	f
O=C(NCCNC(=O)c1ccccc1O)c1ccccc1O	t
COC(=O)C1=C(C)N(Cc2ccccc2)C(=NCc2cccc(Cl)c2)N[C@H]1c1cccc(F)c1	t
CC(NS(=O)(=O)c1ccc(CCC(=O)NCc2cccnc2)cc1)c1ccccc1 (stereo unspecified)	f
Nc1nc(SCC(=O)Nc2cccnc2Cl)n[nH]1	f
COc1cccc(NC(=O)C2CC(=O)n3cnnc3S2)c1 (stereo unspecified)	f
Cn1c(SCC(N)=O)nnc1-c1ccc(C(C)(C)C)cc1	f
Cc1ccc(C(C)C)c(OCC(=O)NNC(=O)C(C(C)C)N2C(=O)c3ccccc3C2=O)c1 (stereo unspecified)	t
O=C(CN1C(=O)NC2(CCCC2)C1=O)Nc1ccccc1-c1ccccc1	f
Cc1cc(C)c2nc(-c3ccncc3)cc(C(=O)N3CCN(Cc4ccccc4Cl)CC3)c2c1	f

* * *

- assay_method_text: qHTS Assay for Lipid Storage Modulators in Drosophila S3 Cells
- study_conditions: BODIPY lipid droplet fluorescence, 18-24 h, cells fed with added oleic acid; series mostly up to 46.1 µM
The whole screen tested about 320,000 compounds, of which about 2,100 (0.66%) were called active. Inconclusive results (about 53%) are left out. Calls follow the shape of the dose curve; as a rule, active = well fitted inhibition curve with a large enough effect in the signal ratio, with a control signal flat (not every such curve was filed as active); inconclusive = small, poorly fitted or top-dose-only effect, or effect the other way, or a change in a side signal; inactive = flat fitted curve, though single readings scatter; the % refers to the signal ratio. The entries come from a sample that favours actives as a whole.
Possible outcomes: yes = active, no = inactive

molecule	label_value
O=C(Nc1nccs1)c1ccc(-c2ccc(F)c(Cl)c2)o1	yes
O=C(COC(=O)c1ccc(S(=O)(=O)N2CCOCC2)cc1)NCc1cccs1	no
Cc1ccc(NC(=O)CCc2c(C)nn(-c3ccc(N4CCCCC4)nn3)c2C)cc1	no
COC(=O)c1cc(-c2ccc(Br)cc2)c2c(=O)n(C)c(=O)n(C)c2n1	yes
CN1CCN(C2CCN(Cc3ccc(O)c4ncccc34)CC2)CC1	no
O=C(O)c1ccccc1C(=O)N1CCN(C(=O)c2ccccc2Cl)CC1	no
O=C(c1ccccc1Cl)N1CCSCC1	no
O=C(Nc1nccs1)c1ccc(-c2ccc(F)cc2)o1	no
COC(=O)c1cc(-c2ccccc2)c2c(=O)n(C)c(=O)n(C)c2n1	no
O=C(NC1CC1)C1CCN(C(=O)c2ccccc2Cl)CC1	no
CCOc1ccc(S(=O)(=O)N2CCC(C(=O)NCC3CCCO3)CC2)cc1Cl (stereo unspecified)	no

* * *

- assay_method_text: qHTS Assay for Lipid Storage Modulators in Drosophila S3 Cells; note: potency is the fitted concentration of half-maximal effect
- study_conditions: BODIPY lipid droplet fluorescence, 18-24 h, cells fed with added oleic acid; series mostly up to 46.1 µM
Hit rate of the full screen: of about 320,000 compounds, about 2,100 (0.66%) were called active. Roughly 53% stayed inconclusive and do not appear here. For the sample, actives were picked, then their nearest neighbours and some compounds at random.

entry_smiles	Potency
c1ccc(-c2cnn3c(-c4ccccc4)c(-c4ccccc4)nc3n2)cc1	3.26 µM (active)
CC(C)c1ccc(NC(=O)N2CCOCC2)cc1	inactive
COCCCNC(=O)c1c(N)n(/N=C/c2ccccn2)c2nc3ccccc3nc12	7.31 µM (active)
O=C1CNC(=O)N1CC(=O)N1CCCc2ccccc21	29.1 µM (active)
O=C(CN1CCCCC1)N1CCCc2ccccc21	inactive
c1ccc(-c2cn3nc(-c4ccccc4)c(-c4ccccc4)nc3n2)cc1	inactive
